# pKi listing for each entry below
- ASSAYED_SYSTEM: Alpha-2C adrenergic receptor (Didelphis virginiana)
- Sequence (P35405 whole entry): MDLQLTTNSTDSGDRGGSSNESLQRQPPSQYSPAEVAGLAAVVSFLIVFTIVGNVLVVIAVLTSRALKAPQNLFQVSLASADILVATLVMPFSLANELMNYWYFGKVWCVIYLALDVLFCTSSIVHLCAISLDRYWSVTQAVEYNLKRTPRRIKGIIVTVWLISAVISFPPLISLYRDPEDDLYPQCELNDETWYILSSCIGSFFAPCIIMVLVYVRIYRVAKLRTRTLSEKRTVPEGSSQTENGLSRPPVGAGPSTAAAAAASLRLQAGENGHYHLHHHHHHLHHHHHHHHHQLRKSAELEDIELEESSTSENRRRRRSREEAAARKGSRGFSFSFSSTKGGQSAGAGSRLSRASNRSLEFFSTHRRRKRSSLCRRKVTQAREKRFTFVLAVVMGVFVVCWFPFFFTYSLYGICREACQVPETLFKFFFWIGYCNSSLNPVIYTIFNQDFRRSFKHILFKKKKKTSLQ
pKi field: float, defined as -log10 of concentration (mol/L).

Recorded results for 4 compounds are shown here.
COMPOUND: COc1cccc(OC)c1OCCNCC1Oc2ccccc2OC1c1ccccc1 (configuration not stated)
pKi: 8.80
//
COMPOUND: COc1ccccc1N1CCN(CCC2C(=O)c3ccccc3C(C)(C)C2=O)CC1 (configuration not stated)
pKi: 7.32
//
COMPOUND: COc1cc2nc(N3CCN(C(=O)c4ccco4)CC3)nc(N)c2cc1OC [[3H]-Minipress]
pKi: 7.44
//
COMPOUND: CCC1(c2cnc[nH]2)Cc2ccccc2C1
pKi: 8.56

Ask: Give me measured pKi, please, for this compound: c1ccc2c(c1)OCC(C1=NCCN1)O2 (configuration not stated)
Reply: 8.62

Ask: Give me measured pKi, please, for this compound: Cc1cc(C(C)(C)C)c(O)c(C)c1CC1=NCCN1
Reply: 7.14

Ask: Give me measured pKi, please, for this compound: O=C1NCN(c2ccccc2)C12CCN(CC1COc3ccccc3O1)CC2 (configuration not stated)
Reply: 9.17

Cited source for all entries: BindingDB's records for PubMed 1656026
